Values compiled from the supplement of paper PMC10567573.

For each of the variants below, state its protein stability index.
B1: CCND1 (parent)
chain: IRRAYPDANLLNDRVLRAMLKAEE

# Variants of: B1
# assay notes: protein stability index of a GFP-peptide fusion (GPS, HEK-293T) (PSI 1-6); higher = more stable;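 note: lentivirally expressed fusions sorted by FACS into six bins by GFP to DsRed ratio, PSI derived from sequencing read proportions per bin multiplied by bin number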
# test parameters: c terminus: a fixed tail appended
Simply state the number, no unit and no words.

Looking for the measured protein stability index of "R17D" , can you help?
2.12

Try "E24S" next.
3.28

Try "K21E" next.
2.73

Try "L16H" next.
3.38

Try "A8F" next.
2.54

Try "I1Q" next.
3.45

Try "A4F" next.
1.4

Try "A8R" next.
3.16

Try "R3H" next.
2.92

Try "R2F" next.
1.94

Try "V15G" next.
3.37

Try "E24N" next.
2.7

Try "R14I" next.
1.03

Try "K21I" next.
2.38

Try "Y5T" next.
3.49

Try "Y5L" next.
3.07

Try "R17E" next.
2.22

Try "L16N" next.
3.65

Try "R3Y" next.
2.05

Try "V15M" next.
1.9

Try "A8H" next.
2.28

Try "P6G" next.
2.13

Try "E24R" next.
2.02

Try "M19R" next.
3.15

Try "K21H" next.
2.56

Try "E23Q" next.
3.18

Try "R3I" next.
1.13

Try "K21T" next.
3.33

Try "L20F" next.
2.63

Try "I1C" next.
2.41
